The reported measurements were obtained from PubChem BioAssay (NCI).

Measured TGI accompanies every entry in the list below.
- System: M14 melanoma
- TEST SUMMARY: NCI tumour cell line growth inhibition, 48 h
PARAMETER MEASURED: TGI

1. CC1=NCCc2c1[nH]c1cc(O)ccc21 | > 100 µM
2. CC(C)(C)N=c1n(C(C)(C)C)oc(=O)n1C(C)(C)C | > 100 µM
3. COc1cc(/C=C2\C(=O)N(C(=O)Cc3ccccc3)N=C2C)ccc1O | > 100 µM
4. COc1cc2c(cc1OC)C(N(C)C)C(c1ccccc1)=C2Cl (configuration not stated) | 34.3 µM
5. COC(=O)/C=C/C=C(c1ccccc1)c1ccccc1 | 17.5 µM
6. COc1ccc2c(c1)O/C(=C\c1cccc(OCC(=O)Nc3nc4c(s3)CCCC4)c1)C2=O | > 100 µM
7. CC1(C)O[C@@H]2COC(=O)[C@@H]2O1 | > 100 µM
8. COC(=O)NN(C(=O)OC)c1c(-c2ccccc2)nc(SC)n1N | > 100 µM
9. CC(=O)NC(CCCNCc1ccccc1)C(=O)NCc1ccccc1 (configuration not stated) | > 100 µM
10. CCCCOC(C)(C)/C=C/C(O)[C@](C)(O)[C@H]1[C@H](O)C[C@@]2(C)[C@@H]3CCc4c(cc(OC5OC(CO)C(O)C(O)C5O)c(O)c4C)C3(C)C(=O)C[C@]12C (some centres not stated) | > 100 µM
11. Cc1ccc(/C=C2\CN(C(=O)OC(C)(C)C)C/C(=C\c3ccc(C)cc3)C2=O)cc1 | > 100 µM
12. COc1nc(NC2OCC(OC(C)=O)C(OC(C)=O)C2OC(C)=O)c(N=CC=Nc2c(NC3OCC(OC(C)=O)C(OC(C)=O)C3OC(C)=O)nc(OC)n(C)c2=O)c(=O)n1C (configuration not stated) | > 100 µM
13. O=C1CCC(=Nc2ccc(Cl)cc2)N1C(=O)COc1ccc(OCC(=O)N2C(=O)CSC2=Nc2ccc(Cl)cc2)cc1 | > 100 µM
14. COc1ccccc1NC(=O)C1=C(C)NC(C)=C(C(=O)Nc2ccccc2OC)C1c1ccccc1F | > 100 µM
15. CCSC1=CC(=O)c2nc3ccccc3c3ccnc1c23 | 6.15 µM
16. CCOC(=O)C1=C(C)N(Cc2ccccc2)C(C)=C(C(=O)OCC)C1c1ccccc1O | > 100 µM
17. CCCc1[nH]nc(CCC(=O)N(Cc2ccccc2)Cc2ccccc2)c1CC | > 100 µM
18. CC(C)(C)OC(=O)C#CC[C@H]1CCCC1/C=C/C(O)=C1/C(=O)NC(CCCNC(=O)OC(C)(C)C)C1=O (some centres not stated) | > 100 µM
19. CCC1=CCC23C(=O)C=CC(=O)C2(C1)C(=O)c1cccc(OC)c1C3=O (configuration not stated) | 30.4 µM
20. O=[N+]([O-])C(=C(N1CCCCC1)N1CCCCC1)/C(Cl)=C(\Cl)Br | 59.1 µM
21. CCC12C[N+]3([O-])CCc4c([nH]c5ccccc45)C(C(=O)OC)(c4cc5c(cc4OC)N(C)C4C(O)(C(=O)OC)C(OC(C)=O)C6(CC)C=CCN7CCC54C76)CC(C3)C1O2 (configuration not stated) | 17.8 µM
22. NC(=S)N/N=C(/CC(=O)c1ccccc1)C(=O)Nc1ccc(Cl)c(Cl)c1 | > 100 µM
23. C[n+]1c(-c2ccccc2)cc2/c(=C\c3ccc([N+](=O)[O-])cc3)c3ccccc3n21 | > 37.6 µM
24. CN(C)c1nc(=NCc2ccncc2)ss1 | 36.1 µM
25. Cc1sc(C(=O)Nc2cc(C(=O)NCCCN(C)C)n(C)c2)cc1NC(=O)CCCN1C(=O)c2cccc3cccc(c23)C1=O | > 100 µM
26. CCOC(=O)c1[nH]cc(C)c1-c1ccn(-c2ccccc2)c1 | > 100 µM
27. CCN(Cc1ccc(F)c(F)c1)c1ccc(CO)c(Cl)c1 | 30.2 µM
